- ASSAYED TARGET: SMYD3 (Homo sapiens (Human))
- ASSAY NOTES: SMYD3 cell assay (Trimethyl-MEKK2 In-Cell Western in 293T/17 cells)
- Assay type: cell-based
- MEASUREMENT SETUP: 293T/17 cells; read-out: SMYD3 Cell IC50 (μM)*
Please provide measured IC50 for the entries that follow.
Your answer should be a plain number; it is taken to be in µM.

Q: // IC50 lookup, key: O=C(N[C@@H]1C[C@H]2CC[C@@H](C1)N2S(=O)(=O)CCN1CCCC1)c1cc(C2CC2)on1 [compound 435]
A: 5.59

Q: Request the reported IC50 associated with `NCCCS(=O)(=O)N1CC[C@H](NC(=O)c2cc(C3CC3)on2)C[C@H]1Cc1ccccc1`
A: 1.86

Q: Fill in the blank: the reported IC50 of `C[C@H]1C[C@@H](NC(=O)c2cc(C3CC3)on2)CCN1S(=O)(=O)c1c[nH]cn1` is ____.
A: 2.13

Q: Which value of IC50 has been reported for `NCCCC(=O)N1CC[C@@H](NC(=O)c2cc(C3CC3)on2)C[C@@H]1Cc1ccccc1` in the records?
A: 33

----------
I'd appreciate it if you could supply IC50 values for the items below.
- ASSAYED TARGET: SMYD3 (Homo sapiens (Human))
- ASSAY NOTES: SMYD3 cell assay (Trimethyl-MEKK2 In-Cell Western in 293T/17 cells)
- Assay type: cell-based
- MEASUREMENT SETUP: average of n = 1 to n = 50; read-out: SMYD3 Cell IC50

Q: # query: IC50 of entry CC1CCCN1CCS(=O)(=O)N1[C@@H]2CC[C@H]1C[C@@H](NC(=O)c1cc(C3CC3)on1)C2 (stereo partly shown)
A: 764 nM

Q: // lookup IC50 for `C[C@@H]1CN(S(=O)(=O)N2CCN(C)CC2)[C@H](C)C[C@@H]1NC(=O)c1cc(C2CC2)on1`
A: 254 nM

Q: Item C[C@H]1C[C@@H](NC(=O)c2cc(C3CC3)on2)CCN1S(=O)(=O)N1CC2CCC1CN2C (stereo partly shown) has what recorded IC50?
A: 298 nM

Q: Reported IC50 for `C[C@H]1CN(S(=O)(=O)N2CCN(C)CC2)CC[C@H]1NC(=O)c1cc(C2CC2)on1` : what is it?
A: 831 nM

Q: # IC50 lookup, item CCC1CN(S(=O)(=O)N2[C@@H]3CC[C@H]2C[C@@H](NC(=O)c2cc(C4CC4)on2)C3)CCN1C (stereo partly shown)
A: 1180 nM

Q: IC50 for O=C(N[C@H]1C[C@H]2CC[C@@H](C1)N2S(=O)(=O)CCN1CCC(N2CCCCC2)C1)c1cc(C2CC2)on1 (stereo partly shown) ?
A: 670 nM

Q: IC50 lookup needed for `O=C(N[C@H]1C[C@H]2CC[C@@H](C1)N2S(=O)(=O)CCNCCc1ccccc1)c1cc(C2CC2)on1` , thanks.
A: 1510 nM

----------
- ASSAYED TARGET: SMYD3 (Homo sapiens (Human), UniProt Q9H7B4)
- Sequence (Q9H7B4 whole entry): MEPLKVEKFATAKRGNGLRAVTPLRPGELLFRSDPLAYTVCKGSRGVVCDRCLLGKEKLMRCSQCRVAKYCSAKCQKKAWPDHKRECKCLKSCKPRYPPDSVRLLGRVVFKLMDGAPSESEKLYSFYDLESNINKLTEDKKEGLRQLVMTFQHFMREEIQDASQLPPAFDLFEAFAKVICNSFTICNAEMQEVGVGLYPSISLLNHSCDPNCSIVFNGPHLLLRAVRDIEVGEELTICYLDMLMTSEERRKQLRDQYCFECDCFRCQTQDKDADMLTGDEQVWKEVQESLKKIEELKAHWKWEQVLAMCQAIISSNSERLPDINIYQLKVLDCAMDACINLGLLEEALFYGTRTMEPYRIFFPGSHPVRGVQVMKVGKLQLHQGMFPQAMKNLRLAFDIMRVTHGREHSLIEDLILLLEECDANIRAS
- ASSAY NOTES: SMYD3 cell assay (Trimethyl-MEKK2 In-Cell Western in 293T/17 cells)
- Assay type: cell-based
- MEASUREMENT SETUP: Table 2A; read-out: SMYD3 Cell IC50
Counter-ions that a name gives are not always drawn.
With a cut-off of 60 nM, any IC50 strictly below it is called yes (1); any IC50 meeting it or above is called no (0).

Q: Dear reviewer, please state whether `CCN1CCN(S(=O)(=O)N2CC[C@H](NC(=O)c3cc(C4CC4)on3)C[C@@H]2C)CC1` has IC50 strictly beneath 60 nM.
A: no (0)

Q: Lab log: compare recorded IC50 with 60 nM; is it strictly lower for `C[C@@H]1C[C@H](NC(=O)c2cc(C3CC3)on2)CCN1S(=O)(=O)CC1CCN(Cc2ccccc2)CC1` ?
A: no (0)

Q: A record lists `C[C@H]1C[C@@H](NC(=O)c2cc(C3CC3)on2)CCN1S(=O)(=O)CC1CCN(CCc2ccccc2)CC1` . Is its IC50 below 60 nM?
A: yes (1)

Q: Dear colleague, could you confirm whether IC50 of `CC1(C)CN(S(=O)(=O)N2[C@@H]3CC[C@H]2C[C@@H](NC(=O)c2cc(C4CC4)on2)C3)CCN1` falls below 60 nM? Thanks.
A: no (0)

Q: For NC1CCN(S(=O)(=O)N2[C@@H]3CC[C@H]2C[C@@H](NC(=O)c2cc(C4CC4)on2)C3)CC1 [Cpd. No. 532, hydrochloride] , is the recorded IC50 below the cut-off of 60 nM?
A: yes (1)

Q: Quick check: IC50 of `C[C@H]1C[C@@H](NC(=O)c2cc(C3CC3)on2)CCN1S(=O)(=O)CC1CCN(Cc2ccccc2)CC1` under 60 nM?
A: yes (1)

----------
Would you kindly list IC50 for each of these compounds?
- ASSAYED TARGET: SMYD3 (Homo sapiens (Human))
- ASSAY NOTES: SMYD3 biochemical assay (SPA, 3H-SAM methylation of MEKK2 protein substrate)
- MEASUREMENT SETUP: Table 2A; read-out: SMYD3 Biochem IC50
Response body: numeric value in nM, unit text excluded.

Q: Could you share which IC50 value was measured for O=C(N[C@H]1C[C@H]2CC[C@@H](C1)N2S(=O)(=O)CC1CCN(CCN2CCCCC2)CC1)c1cc(C2CC2)on1 [compound 549] ?
A: 2.5

Q: Given the compound C[C@H]1CN(S(=O)(=O)CC2CCN(CCCC(F)(F)F)CC2)CC[C@H]1NC(=O)c1cc(C2CC2)on1 [compound 613] , what is its reported IC50?
A: 20.9

Q: Looking for the measured IC50 of O=C(N[C@H]1C[C@H]2CC[C@@H](C1)N2S(=O)(=O)C[C@H]1CCCNC1)c1cc(C2CC2)on1 [compound 575] , can you help?
A: 8

Q: // returns reported IC50 for input C[C@H]1C[C@@H](NC(=O)c2cc(C3CC3)on2)CCN1S(=O)(=O)CCCNCc1ccc2ccccc2c1 [compound 578]
A: 9.4

Q: Given the compound COCCN1CCC(CS(=O)(=O)N2CC[C@H](NC(=O)c3cc(C4CC4)on3)C[C@@H]2C)CC1 [compound 554] , what is its reported IC50?
A: 3.5

Q: Suppose we examine the compound C[C@H]1CN(S(=O)(=O)CC2CCN(CCO)CC2)CC[C@H]1NC(=O)c1cc(C2CC2)on1 [compound 623] ; what IC50 value has been reported?
A: 23.7

Q: Would you kindly share the measured IC50 for CC(C)NC1CCN(S(=O)(=O)N2CC[C@H](NC(=O)c3cc(C4CC4)on3)C[C@@H]2C)CC1 [compound 581] ?
A: 10.1

----------
Give pIC50 for every item shown.
- ASSAYED TARGET: SMYD3 (Homo sapiens (Human), UniProt Q9H7B4)
- ASSAY NOTES: SMYD3 biochemical assay (SPA, 3H-SAM methylation of MEKK2 protein substrate)
- MEASUREMENT SETUP: read-out: SMYD3 Biochem IC50*
Note on units: pIC50 is unitless, being -log10 of a concentration expressed in mol/L.

Q: GET /values?readout=pIC50&item= CC1CN(S(=O)(=O)N2[C@@H]3CC[C@H]2C[C@@H](NC(=O)c2cc(C4CC4)on2)C3)CCC1N (stereo partly shown)
A: 8.36

Q: What value of measured pIC50 is listed for `O=C(N[C@H]1C[C@H]2CC[C@@H](C1)N2S(=O)(=O)N1CCC(NCCC(F)(F)F)CC1)c1cc(C2CC2)on1` ?
A: 7.60

Q: Param item = `CN1CC2CCC1CN2S(=O)(=O)N1[C@@H]2CC[C@H]1C[C@@H](NC(=O)c1cc(C3CC3)on1)C2` ; retrieve measured pIC50.
A: 7.86

Q: Quick check: pIC50 of CC1CN(S(=O)(=O)N2[C@@H]3CC[C@H]2C[C@@H](NC(=O)c2cc(C4CC4)on2)C3)CCN1 (stereo partly shown) ?
A: 7.91

Q: Dear colleague, I am looking for the recorded pIC50 of the following compound: `CC(C)c1cc(C(=O)N[C@H]2C[C@H]3CC[C@@H](C2)N3S(=O)(=O)N2CCC(N)CC2)no1`
A: 7.69

Q: Fill in the blank: the reported pIC50 of `COCCN(C)C1CCN(S(=O)(=O)N2[C@@H]3CC[C@H]2C[C@@H](NC(=O)c2cc(C4CC4)on2)C3)CC1` is ____.
A: 7.63

Q: Look up pIC50 for this compound: `C[C@H](C1CCNCC1)S(=O)(=O)N1[C@@H]2CC[C@H]1C[C@@H](NC(=O)c1cc(C3CC3)on1)C2`
A: 8.29

----------
Provide the reported IC50 of each item.
- ASSAYED TARGET: SMYD3 (Homo sapiens (Human))
- ASSAY NOTES: SMYD3 cell assay (Trimethyl-MEKK2 In-Cell Western in 293T/17 cells)
- Format: cell-based
- MEASUREMENT SETUP: read-out: SMYD3 Cell IC50*
Numbers only here, please. The scale is nM.

Q: Fill in the blank: the reported IC50 of CC1CN(S(=O)(=O)N2[C@@H]3CC[C@H]2C[C@@H](NC(=O)c2cc(C4CC4)on2)C3)CCN1 (stereo partly shown) is ____.
A: 87.8

Q: Item under review: `O=C(N[C@H]1C[C@H]2CC[C@@H](C1)N2S(=O)(=O)c1ccc(CN2CCCC2)cc1)c1cc(C2CC2)on1` . Reported IC50?
A: 585

Q: Could you share which IC50 value was measured for `C[C@@H]1C[C@@H](NS(=O)(=O)N2[C@@H]3CC[C@H]2C[C@@H](NC(=O)c2cc(C4CC4)on2)C3)CCN1` ?
A: 176

Q: For `C[C@H]1C[C@@H](NC(=O)c2cc(C3CC3)on2)CCN1S(=O)(=O)N1CCC2(CCCN2)CC1` , what is its reported IC50?
A: 60.8

Q: Please report the recorded IC50 for `C[C@H]1C[C@@H](NC(=O)c2cc(C3CC3)on2)CCN1S(=O)(=O)N1CCC2(CCN2)CC1` .
A: 35.7

Q: I am curious: what IC50 value has been reported for `C[C@H]1C[C@@H](NC(=O)c2cc(C3CC3)on2)CCN1S(=O)(=O)N1CCC(NCCN2CCOCC2)CC1` ?
A: 253

Q: State the recorded IC50 for this entry: `CN1CC2CC1CN2S(=O)(=O)N1[C@@H]2CC[C@H]1C[C@@H](NC(=O)c1cc(C3CC3)on1)C2`
A: 86.2
